Recorded values, source patent US20190375708A1.

# Test summary: In vitro cytotoxicity assay (MTT cell viability) in HepG2 cells
# Format: cell-based, human
# Protocol conditions: human
# Description: To evaluate antiviral selectivity, the cytotoxic activity of each compound was determined using a standard cell viability assay performed on the parental HepG2 cell line. Cell viability was determined by measuring the conversion of 3-(4,5-dimethylthiazol-2-yl)-2,5-diphenyltetrazolium bromide (MTT) to the insoluble formazan salt crystal that occurs in live cells. […] All absorbance values were converted to a percentage of the signal obtained from the vehicle treated controls. […]
Measure: CC50 at 7 days

Cc1nc(CCNC(=O)C(=O)c2c(C)c(C(=O)Nc3ccc(F)c(C)c3)c(C)n2C)c(C)s1 > 30 µM
Cc1noc([C@@H](C)NC(=O)C(=O)c2c(Cl)c(C(=O)Nc3ccc(F)c(Cl)c3)c3n2CCCC3)n1 5 to 30 µM
Cc1cc(NC(=O)c2c(Cl)c(C(=O)C(=O)NC(C)(C)C)n(C)c2C)cnc1F > 30 µM

Incoming: Could you tell me which CC50 at 7 days is on file for `Cc1cc(NC(=O)c2c(C)c(C(=O)C(=O)N[C@H](C)C(F)(F)F)n3c2CCCC3)cnc1F` ?
Outgoing: 5 to 30 µM

Incoming: What does the record list as CC50 at 7 days for `Cc1cc(NC(=O)c2c(Cl)c(C(=O)C(=O)NC3(CO)CC3)n3c2CCC3)ccc1F` ?
Outgoing: > 30 µM

Incoming: Form field: reported CC50 at 7 days of `Cc1cc(NC(=O)c2c(C)c(C(=O)C(=O)N[C@H]3C4CC5CC3C[C@](O)(C5)C4)n(CCF)c2C)ccc1F`
Outgoing: > 30 µM

Incoming: Give its CC50 at 7 days value. Item: `Cc1cc(NC(=O)c2c(C)c(C(=O)C(=O)NC(C)(C)COC(F)F)n(C)c2C)ccc1F`
Outgoing: 5 to 30 µM
